Listed here are compounds together with their documented IC50.
target-under-test: MtFBPaseII (Mycobacterium tuberculosis, UniProt P9WN21)
Construct: His-tag (N); made in house
Sequence (P9WN21 whole entry): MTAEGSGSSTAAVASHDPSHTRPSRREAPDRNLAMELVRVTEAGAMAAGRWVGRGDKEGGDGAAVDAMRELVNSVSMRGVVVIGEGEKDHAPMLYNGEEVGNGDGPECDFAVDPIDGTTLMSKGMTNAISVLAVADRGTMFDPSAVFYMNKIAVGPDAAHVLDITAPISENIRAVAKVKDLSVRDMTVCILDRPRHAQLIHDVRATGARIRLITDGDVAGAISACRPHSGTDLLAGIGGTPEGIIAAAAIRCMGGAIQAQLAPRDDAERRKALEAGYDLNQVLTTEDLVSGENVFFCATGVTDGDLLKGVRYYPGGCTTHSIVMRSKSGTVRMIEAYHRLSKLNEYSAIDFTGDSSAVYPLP
assay-protocol: FBPase activity of wild-type MtFBPaseII, malachite green assay
Format: biochemical
conditions-used: IC50 values of compounds against MtFBPaseII, wild-type MtFBPaseII; malachite green assay; fit of triplicate data, standard error reported
The answer is to be given in mM; state only the numeric part.

>>> reported_measurement("O=C(O)CC(=O)C(=O)O [Oxaloacetate]")
6.4

# context switch: different compound, same IC50
Query: Print MtFBPaseII (Mycobacterium tuberculosis, UniProt P9WN21) IC50 for O=C(O)CC(O)C(=O)O (centres unmarked) [Malate, malate] .
Result: 3.3
